Target: FLT3 (Homo sapiens (Human))
Sequence (P36888 27-993): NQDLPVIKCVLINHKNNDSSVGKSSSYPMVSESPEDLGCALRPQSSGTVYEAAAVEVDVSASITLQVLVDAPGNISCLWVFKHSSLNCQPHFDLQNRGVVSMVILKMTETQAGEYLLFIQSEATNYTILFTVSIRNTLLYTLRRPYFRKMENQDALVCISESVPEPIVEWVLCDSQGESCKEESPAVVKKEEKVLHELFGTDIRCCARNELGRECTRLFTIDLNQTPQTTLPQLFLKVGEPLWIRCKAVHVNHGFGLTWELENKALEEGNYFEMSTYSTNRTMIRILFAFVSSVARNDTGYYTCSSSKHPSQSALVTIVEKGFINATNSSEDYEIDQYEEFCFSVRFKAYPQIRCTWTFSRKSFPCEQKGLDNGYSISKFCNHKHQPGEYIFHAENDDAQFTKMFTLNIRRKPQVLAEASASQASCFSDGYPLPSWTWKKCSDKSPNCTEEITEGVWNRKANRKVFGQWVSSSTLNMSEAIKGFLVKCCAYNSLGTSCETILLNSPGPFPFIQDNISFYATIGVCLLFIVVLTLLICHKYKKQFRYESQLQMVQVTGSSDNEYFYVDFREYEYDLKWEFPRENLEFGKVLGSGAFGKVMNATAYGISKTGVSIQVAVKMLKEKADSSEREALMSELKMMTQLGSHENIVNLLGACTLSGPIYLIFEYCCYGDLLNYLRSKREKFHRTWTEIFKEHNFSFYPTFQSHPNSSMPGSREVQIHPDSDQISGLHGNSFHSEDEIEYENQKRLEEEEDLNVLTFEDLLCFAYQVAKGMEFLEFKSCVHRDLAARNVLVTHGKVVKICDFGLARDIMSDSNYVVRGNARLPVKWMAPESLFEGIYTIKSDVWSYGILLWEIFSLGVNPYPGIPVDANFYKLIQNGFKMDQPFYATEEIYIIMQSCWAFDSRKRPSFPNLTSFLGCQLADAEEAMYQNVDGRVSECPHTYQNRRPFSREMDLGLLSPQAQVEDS
quantity name: IC50

Some compounds with known IC50 results, for comparison:
COc1ccc2c(c1)[C@]1(C[C@H]1c1ccc3c(-c4ccc(CO)cc4)n[nH]c3c1)C(=O)N2 (relative stereo) [Example A45, 2,2,2-trifluoroacetate] ... > 1 µM
COc1ccc2c(c1)[C@]1(C[C@H]1c1ccc3c(/C=C/c4cccc(CN5CCOCC5)c4)n[nH]c3c1)C(=O)N2 [Example A132, 2,2,2-trifluoroacetate] ... < 0.1 µM

Query: // returns reported IC50 for input COc1ccc2c(c1)[C@]1(C[C@H]1c1ccc3c(/C=C/c4ccc(N5CCN(C)CC5)cc4)n[nH]c3c1)C(=O)N2 [Example A175, 2,2,2-trifluoroacetate]
Response: < 0.1 µM

Data credit: patent US9907800B2
